Molecular target: T1, human CD48 (on primary human peripheral blood mononuclear cells) (human, UniProt P09326 27-220)
T1 sequence: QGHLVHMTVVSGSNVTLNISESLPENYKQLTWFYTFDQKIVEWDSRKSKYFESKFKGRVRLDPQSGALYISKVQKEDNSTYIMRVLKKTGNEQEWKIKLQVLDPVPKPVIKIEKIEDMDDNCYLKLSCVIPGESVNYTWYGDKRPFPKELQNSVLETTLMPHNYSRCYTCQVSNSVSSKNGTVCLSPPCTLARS
Experiment: cell-based or functional assay
MEASURED_METRIC: % Blockade of IFNγ release, MLR; D5
Report field: quantity (unit follows the number).

Value of % Blockade of IFNγ release, MLR; D5 reported for the binder H4H1763N (antibody, human IgG4, V domains shown, Human IgG4 Fc (H4H) form of 1763N) VH: QIQLVQSGAEMKRPGTSVKVSCKASGYTFTSYGINWVRQAPGQGLEWMGWISAYNGDTNYAQKLQGRVTMTTDTSTTTAYMEVRSLRSDDTAVYYCARFLTGTKDYYYGMDVWGQGTTVTVSS VL: DIQMTQSPSSLSASVGDRVTITCQASQDISNFLNWYQQKPGKAPDLLINDASILETGVPSRFSGSGSGTDFTLTINNLQPEDIATYYCQQYDNLPLTFGGGTKVEIK is 63%

Value of measured % Blockade of IFNγ release, MLR; D5 for the entry H4H1771P (antibody, human IgG4, V domains shown, Human IgG4 Fc (H4H)) VH: QVQLVQSGTEVKKPGASVKVSCKVSGYTLIDLSIHWVRQAPGEGLEWMGGFDPEESETIYAQKFQGRVTMTEDTSTDTAYMELSSLRSEDTAVYYCVTEPIFGILIHESWGQGTLVTVSS VL: DIVMTQTPLSSPVTLGQPASISCRSSHSPVHSNGHTYLSWLQQRPGQPPRILIYKISRRFSGVPDRFSGSGAGTDFTLKISRVETEDVGIYYCMQASQFPWTFGQGTKVEIK : 47%

Briefly, % Blockade of IFNγ release, MLR; D5 measured for H4H1769Pa (antibody, human IgG4, V domains shown) VH: QVQLVQSGAEVKKPGASVKVSCKTSGYTFAGYGITWVRQAPGRGLEWMGWVSAYNGDTDYAQSLQGRVTMTTDTSTSTAYMELRSLRSDDTAMYYCARDRYSSSSGYFDYWGQGTLVTVSS VL: DIQMTQSPSSVSASVGDRVTITCRASQGISSWLAWHQQKPGKAPKVLIYAASSLHSGVPSRFSGSGSGTEFTLTISSLQPEDFATYYCQQANTFPYTFGQGTKLEIK : 43%

Where do these numbers come from? They come from patent US20130230533A1.
